The origin of these recorded values is ChEMBL document CHEMBL5360626.

Entries annotated with measured pIC50
Test system: Caco-2
Experiment: Cytotoxicity against human Caco-2 cells incubated for 72 hrs by MTT assay
Type: functional, cell-based
Details: Caco-2, 72 h
# pIC50: negative log10 of molar concentration; output just the value

Param item: C=C(C)[C@@H]1CC[C@]2(C(=O)OCCCCCC[P+](c3ccccc3)(c3ccccc3)c3ccccc3)CC[C@]3(C)[C@H](CC[C@@H]4[C@@]5(C)CC[C@H](O)C(C)(C)[C@@H]5CC[C@]43C)[C@@H]12.[Br-] ; param system: Caco-2; output pIC50: 5.85

Param item: C=C(C)[C@@H]1CC[C@]2(C(=O)OCCCCCC[P+](c3ccccc3)(c3ccccc3)c3ccccc3)CC[C@]3(C)[C@H](CC[C@@H]4[C@@]5(C)CC[C@H](O[C@@H]6O[C@@H](C)[C@H](O)[C@@H](O)[C@H]6O)C(C)(C)[C@@H]5CC[C@]43C)[C@@H]12.[Br-] ; param system: Caco-2; output pIC50: 5.70

Param item: C=C(C)[C@@H]1CC[C@]2(C(=O)OCCCCCC[P+](c3ccccc3)(c3ccccc3)c3ccccc3)CC[C@]3(C)[C@H](CC[C@@H]4[C@@]5(C)CC[C@H](O[C@@H]6O[C@H](CO)[C@@H](O)[C@H](O)[C@H]6O)C(C)(C)[C@@H]5CC[C@]43C)[C@@H]12.[Br-] ; param system: Caco-2; output pIC50: 5.96

Param item: C=C(C)[C@@H]1CC[C@]2(C(=O)OCCCCCC[P+](c3ccccc3)(c3ccccc3)c3ccccc3)CC[C@]3(C)[C@H](CC[C@@H]4[C@@]5(C)CC[C@H](O[C@H]6O[C@H](CO)[C@@H](O)[C@H](O)[C@@H]6O)C(C)(C)[C@@H]5CC[C@]43C)[C@@H]12.[Br-] ; param system: Caco-2; output pIC50: 5.62

###

Entries annotated with measured Drug uptake
Test: Drug accumulation in human PC-3 cells at 1 uM incubated for 2 hrs by LC-MS/MS analysis
Type: ADME, cell-based
Conditions: pc-3, 2 h
Return type: number; implicit unit µM.

Just so you know, measured Drug uptake for C=C(C)[C@@H]1CC[C@]2(C(=O)OCCCCCC[P+](c3ccccc3)(c3ccccc3)c3ccccc3)CC[C@]3(C)[C@H](CC[C@@H]4[C@@]5(C)CC[C@H](O[C@@H]6O[C@@H](C)[C@H](O)[C@@H](O)[C@H]6O)C(C)(C)[C@@H]5CC[C@]43C)[C@@H]12.[Br-] came out at 3.5

Just so you know, measured Drug uptake for C=C(C)[C@@H]1CC[C@]2(C(=O)O)CC[C@]3(C)[C@H](CC[C@@H]4[C@@]5(C)CC[C@H](O)C(C)(C)[C@@H]5CC[C@]43C)[C@@H]12 came out at 0.035

Just so you know, measured Drug uptake for C=C(C)[C@@H]1CC[C@]2(C(=O)OCCCCCC[P+](c3ccccc3)(c3ccccc3)c3ccccc3)CC[C@]3(C)[C@H](CC[C@@H]4[C@@]5(C)CC[C@H](O)C(C)(C)[C@@H]5CC[C@]43C)[C@@H]12.[Br-] came out at 3.5

Just so you know, measured Drug uptake for C=C(C)[C@@H]1CC[C@]2(C(=O)OCCCCCC[P+](c3ccccc3)(c3ccccc3)c3ccccc3)CC[C@]3(C)[C@H](CC[C@@H]4[C@@]5(C)CC[C@H](O[C@H]6O[C@H](CO)[C@@H](O)[C@H](O)[C@@H]6O)C(C)(C)[C@@H]5CC[C@]43C)[C@@H]12.[Br-] came out at 3.5

Just so you know, measured Drug uptake for C=C(C)[C@@H]1CC[C@]2(C(=O)OCCCCCC[P+](c3ccccc3)(c3ccccc3)c3ccccc3)CC[C@]3(C)[C@H](CC[C@@H]4[C@@]5(C)CC[C@H](O[C@@H]6O[C@H](CO)[C@@H](O)[C@H](O)[C@H]6O)C(C)(C)[C@@H]5CC[C@]43C)[C@@H]12.[Br-] came out at 172.9

###

Assay: Selectivity index, ratio of IC50 for human skin fibroblast to IC50 for human PC-3 cells
Assay type: toxicity
Conditions: human skin fibroblasts and PC-3 cells, read-out: Ratio IC50
Entries annotated with measured selectivity ratio
Format: numeric value only, no unit, no commentary.

// worked examples, selectivity ratio included
| COMPOUND STRUCTURE | selectivity ratio |
| --- | --- |
| C=C(C)[C@@H]1CC[C@]2(C(=O)OCCCCCC[P+](c3ccccc3)(c3ccccc3)c3ccccc3)CC[C@]3(C)[C@H](CC[C@@H]4[C@@]5(C)CC[C@H](O[C@H]6O[C@H](CO)[C@@H](O)[C@H](O)[C@@H]6O)C(C)(C)[C@@H]5CC[C@]43C)[C@@H]12.[Br-] | 2.5 |
| C=C(C)[C@@H]1CC[C@]2(C(=O)OCCCCCC[P+](c3ccccc3)(c3ccccc3)c3ccccc3)CC[C@]3(C)[C@H](CC[C@@H]4[C@@]5(C)CC[C@H](O)C(C)(C)[C@@H]5CC[C@]43C)[C@@H]12.[Br-] | 8.3 |
| C=C(C)[C@@H]1CC[C@]2(C(=O)OCCCCCC[P+](c3ccccc3)(c3ccccc3)c3ccccc3)CC[C@]3(C)[C@H](CC[C@@H]4[C@@]5(C)CC[C@H](O[C@@H]6O[C@@H](C)[C@H](O)[C@@H](O)[C@H]6O)C(C)(C)[C@@H]5CC[C@]43C)[C@@H]12.[Br-] | 9.7 |

Next compound, selectivity ratio to be filled in.
Just so you know, measured selectivity ratio for C=C(C)[C@@H]1CC[C@]2(C(=O)OCCCCCC[P+](c3ccccc3)(c3ccccc3)c3ccccc3)CC[C@]3(C)[C@H](CC[C@@H]4[C@@]5(C)CC[C@H](O[C@@H]6O[C@H](CO)[C@@H](O)[C@H](O)[C@H]6O)C(C)(C)[C@@H]5CC[C@]43C)[C@@H]12.[Br-] came out at 32
